Target: T167A Rho-MatB (Rhodopseudomonas palustris, UniProt Q6ND88, C106A/K488A/Q457C/R286C/T167A)
Construct: His6-tag, Rho-MatB background, two tetramethylrhodamines (5-IATR)
Assay: Fluorescence titration (excitation 553 nm, emission 571 nm) of 0.5 µM fully purified Rho-MatB with ATP in 50 mM Hepes pH 7.0, 100 mM NaCl, 10 mM MgCl2, 0.3 mg/ml BSA, 20°C, quadratic binding fit.
measurement-name: pKd
Numbers only, as −log10 of the molar value.

input: // pKd lookup, key: Nc1ncnc2c1ncn2[C@@H]1O[C@H](COP(=O)(O)OP(=O)(O)OP(=O)(O)O)[C@@H](O)[C@H]1O [ATP, adenosine 5'-triphosphate]
output: 3.91
